System: SNB-19 CNS
experiment.notes: NCI-60 one-dose screen, 48 h
experimental.conditions: 10 µM unless noted
Compounds without any hit were thinned out: in the full panel of roughly 83,000, 20% have a hit. Calls of active or inactive are those of the source. How the source made its calls: active means growth percent below 10; inactive means the rest.
# valid calls are active, inactive; nothing else

See these solved cases before continuing.
compound	target.system	discrete.label
O=S(=O)(NCCNc1cc(-c2c(-c3cccc(O)c3)nc3sccn23)ccn1)c1ccc(Br)cc1	SNB-19 CNS	inactive
CCCN1CCN(c2ccc3nc(-c4ccc5nc(-c6cc(OC)c(OC)c(OC)c6)[nH]c5c4)[nH]c3c2)CC1	SNB-19 CNS	inactive

Each compound tested received a call. Report the one for "COc1ccc(/C=N/NC(=O)Cn2c(-c3ccc(S(C)(=O)=O)cc3)nc3cc(Cl)ccc32)cc1" .
inactive

Each compound tested received a call. Report the one for CC1=NN(c2cccc(Cl)c2)C(=O)/C1=C\c1cn(CC(O)CN2CCCCC2)c2ccccc12 (stereo not drawn) .
inactive

Each compound tested received a call. Report the one for "COc1cc(CNC(=O)/C=C/C=C/c2ccc3c(c2)OCO3)ccc1OCc1cn(-c2ccc(Cl)c(Cl)c2)nn1" .
inactive

====

Examples of compounds with documented growth follow.
System: SK-MEL-2 melanoma
experiment.notes: NCI-60 one-dose screen, 48 h (100 = growth as untreated, 0 = no growth, -100 = all killed)
experimental.conditions: 10 µM unless noted
Description: Growth inhibition of the SK-MEL-2 human tumor cell line is measured as a screen for anti-cancer activity. Cells are grown in 96 well plates and exposed to the test compound for 48 hours. Compounds are tested at a single concentration, which is 10^-5 M for most compounds. The reported endpoint is percent growth (GI% or GIPRCNT), where numbers from 0 - 100% represent growth inhibition, and numbers from -100% - 0 represent cell death. For example, a value of 40 represents 60% growth inhibition. […]
Compounds without any hit were thinned out: in the full panel of roughly 83,000, 20% have a hit. Active and inactive are the calls of the source. Rule for the calls: active = growth percent below 10; inactive = the rest.

Examples with their reported growth follow.
compound	growth
Cc1cc(NS(=O)(=O)c2ccccc2)c(OS(=O)(=O)c2ccccc2)cc1C	118% (inactive)
COc1ccc2cc(-c3ccc(C(=O)NN)c(C)n3)ccc2c1	102% (inactive)
COc1cc(-c2ncn(/C=C\c3nnco3)n2)cc(C(F)(F)F)c1	-6.5% (active)
COc1ccc(OC)c(Nc2nc3nonc3nc2Nc2cccc(Br)c2)c1	-17.4% (active)
c1ccc2c(c1)ncn2-c1nc2ccccc2n2c1nc1ccccc12	104% (inactive)

Given the compound "CCCCCCNC(=O)c1cc(NCc2cc(O)ccc2O)ccc1O" , what is its reported growth?
95.5% (inactive)

Given the compound "O=C1c2ccccc2C(=O)c2cc(Cn3cc[n+](Cc4ccc5ccccc5c4)c3)ccc21" , what is its reported growth?
89.1% (inactive)

Given the compound "Cc1ccc(NSc2ccccc2[N+](=O)[O-])cc1" , what is its reported growth?
23.5% (inactive)

Given the compound "CC[C@]1(O)C[C@H]2CN(CCc3c([nH]c4ccccc34)[C@@](C(=O)OC)(c3cc4c(cc3OC)N(C=O)[C@H]3[C@@](O)(C(=O)OC)[C@H](OC(C)=O)[C@]5(CC)C=CCN6CC[C@]43[C@@H]65)C2)C1" , what is its reported growth?
58% (inactive)

Given the compound "CCCCNCC(=O)Nc1ccc(C(=O)OCC)cc1" , what is its reported growth?
93% (inactive)
